- system.name: wild type LRRK2 overexpressed in recombinant HEK-293T cells (Homo sapiens)
- assay.summary: pS935 LRRK2 Cell Assay (HTRF, phospho-LRRK2 Ser935)
- assay.conditions: LRRK2 Inhibition, Table 8, 2 hours compound incubation
Overview of reported pIC50 across a group of compounds:
Note on pIC50: it is the negative log10 of concentration, concentration in mol/L.

Sample C[C@@H]1C[C@H](n2c(CC(=O)Nc3cccnc3)nc3cnc4ccc(C#N)cc4c32)CCO1 [Compound 320] , system: wild type LRRK2 overexpressed in recombinant HEK-293T cells (Homo sapiens). Its pIC50 is 8.20

Sample C[C@@H]1C[C@H](n2c(CC(=O)Nc3ccc(C(F)(F)F)n(C)c3=O)nc3cnc4ccc(C#N)cc4c32)CCO1 [Compound 221] , system: wild type LRRK2 overexpressed in recombinant HEK-293T cells (Homo sapiens). Its pIC50 is 8.24

Sample C[C@@H]1C[C@H](n2c(C3CC(=O)N([C@@H]4CCCOC4)C3)nc3cnc4ccc(C#N)cc4c32)CCO1 (stereo partly drawn) [Compound 51] , system: wild type LRRK2 overexpressed in recombinant HEK-293T cells (Homo sapiens). Its pIC50 is 6.51

Sample C[C@@H]1C[C@H](n2c(CC(=O)NC3CCCCC3)nc3cnc4ccc(C#N)cc4c32)CCO1 [Compound 309] , system: wild type LRRK2 overexpressed in recombinant HEK-293T cells (Homo sapiens). Its pIC50 is 7.84

Sample C[C@@H]1C[C@H](n2c(CC(=O)Nc3cnccc3O)nc3cnc4ccc(C#N)cc4c32)CCO1 [Compound 208] , system: wild type LRRK2 overexpressed in recombinant HEK-293T cells (Homo sapiens). Its pIC50 is 5.31

---

- system.name: wild type LRRK2 overexpressed in recombinant HEK-293T cells (Homo sapiens, UniProt Q5S007)
- Sequence (Q5S007 whole entry): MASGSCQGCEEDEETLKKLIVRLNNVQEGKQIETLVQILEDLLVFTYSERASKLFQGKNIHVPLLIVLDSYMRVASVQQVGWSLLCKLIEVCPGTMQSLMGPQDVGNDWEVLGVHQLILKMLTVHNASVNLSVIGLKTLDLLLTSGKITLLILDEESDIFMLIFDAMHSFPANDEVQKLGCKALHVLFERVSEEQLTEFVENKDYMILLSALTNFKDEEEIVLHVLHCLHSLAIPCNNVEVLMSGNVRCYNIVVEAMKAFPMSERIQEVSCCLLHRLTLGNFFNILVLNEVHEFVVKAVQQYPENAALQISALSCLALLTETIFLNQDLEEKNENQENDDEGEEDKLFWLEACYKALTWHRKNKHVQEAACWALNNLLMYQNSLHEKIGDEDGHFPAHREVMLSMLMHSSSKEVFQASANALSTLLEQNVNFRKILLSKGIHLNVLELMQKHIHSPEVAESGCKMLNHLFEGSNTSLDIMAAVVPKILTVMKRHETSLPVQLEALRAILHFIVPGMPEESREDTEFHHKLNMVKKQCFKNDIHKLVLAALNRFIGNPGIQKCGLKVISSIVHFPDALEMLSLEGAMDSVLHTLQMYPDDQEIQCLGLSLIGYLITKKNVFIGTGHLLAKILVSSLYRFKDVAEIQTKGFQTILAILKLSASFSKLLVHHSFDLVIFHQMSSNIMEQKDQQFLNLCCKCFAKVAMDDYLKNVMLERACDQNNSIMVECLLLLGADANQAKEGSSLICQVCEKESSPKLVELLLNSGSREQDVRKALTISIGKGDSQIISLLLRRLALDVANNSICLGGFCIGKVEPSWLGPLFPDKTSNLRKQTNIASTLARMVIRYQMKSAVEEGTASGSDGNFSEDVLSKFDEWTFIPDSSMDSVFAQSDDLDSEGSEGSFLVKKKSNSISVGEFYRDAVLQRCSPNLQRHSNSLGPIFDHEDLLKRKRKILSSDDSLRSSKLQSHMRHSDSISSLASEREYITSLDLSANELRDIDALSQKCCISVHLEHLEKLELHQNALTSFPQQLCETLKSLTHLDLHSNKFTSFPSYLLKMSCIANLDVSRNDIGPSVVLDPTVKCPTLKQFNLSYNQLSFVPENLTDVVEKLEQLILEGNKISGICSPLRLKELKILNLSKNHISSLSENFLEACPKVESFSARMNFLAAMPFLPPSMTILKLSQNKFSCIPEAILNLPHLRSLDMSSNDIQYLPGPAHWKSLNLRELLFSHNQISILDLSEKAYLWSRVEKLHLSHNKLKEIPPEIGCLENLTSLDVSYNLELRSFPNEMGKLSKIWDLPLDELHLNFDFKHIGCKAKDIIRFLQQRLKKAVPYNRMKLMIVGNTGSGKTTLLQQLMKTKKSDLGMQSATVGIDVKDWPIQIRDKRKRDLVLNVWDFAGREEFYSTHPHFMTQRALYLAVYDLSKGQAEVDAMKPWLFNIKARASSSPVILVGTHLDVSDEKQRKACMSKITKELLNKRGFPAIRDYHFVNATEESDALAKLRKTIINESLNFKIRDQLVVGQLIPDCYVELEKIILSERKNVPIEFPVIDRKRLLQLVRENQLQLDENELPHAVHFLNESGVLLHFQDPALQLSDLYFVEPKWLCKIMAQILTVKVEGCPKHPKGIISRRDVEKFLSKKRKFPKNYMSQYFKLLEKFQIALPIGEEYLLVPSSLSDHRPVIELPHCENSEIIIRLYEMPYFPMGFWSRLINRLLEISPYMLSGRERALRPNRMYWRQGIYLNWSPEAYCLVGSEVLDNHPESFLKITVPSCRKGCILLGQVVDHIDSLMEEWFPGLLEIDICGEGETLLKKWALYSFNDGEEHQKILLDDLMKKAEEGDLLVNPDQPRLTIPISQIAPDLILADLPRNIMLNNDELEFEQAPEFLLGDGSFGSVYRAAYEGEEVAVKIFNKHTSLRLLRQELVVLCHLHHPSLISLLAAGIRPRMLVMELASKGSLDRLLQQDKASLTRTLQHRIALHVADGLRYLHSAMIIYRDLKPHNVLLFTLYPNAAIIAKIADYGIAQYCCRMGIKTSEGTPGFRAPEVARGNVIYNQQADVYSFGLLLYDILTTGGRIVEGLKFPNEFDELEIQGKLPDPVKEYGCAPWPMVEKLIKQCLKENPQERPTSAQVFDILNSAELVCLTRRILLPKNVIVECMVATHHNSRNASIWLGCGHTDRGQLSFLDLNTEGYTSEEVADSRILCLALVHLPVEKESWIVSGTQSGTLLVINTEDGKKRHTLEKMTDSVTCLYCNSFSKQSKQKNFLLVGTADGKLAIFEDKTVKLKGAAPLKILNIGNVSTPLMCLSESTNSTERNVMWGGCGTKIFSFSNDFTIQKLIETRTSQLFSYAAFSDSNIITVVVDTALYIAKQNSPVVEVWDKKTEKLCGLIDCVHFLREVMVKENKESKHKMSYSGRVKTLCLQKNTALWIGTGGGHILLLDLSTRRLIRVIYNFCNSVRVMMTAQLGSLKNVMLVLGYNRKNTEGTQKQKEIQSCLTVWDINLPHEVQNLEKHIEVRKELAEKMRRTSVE
- assay.summary: pS935 LRRK2 Cell Assay (HTRF, phospho-LRRK2 Ser935)
- assay.conditions: LRRK2 Inhibition, Table 8, 2 hours compound incubation
Hi! Could you tag entries with IC50 below 30 nM as Yes, and those at or above as No? Much appreciated.

As a guide, the following entries are already answered.
Cc1nc(NC(=O)Cc2nc3cnc4ccc(C#N)cc4c3n2[C@@H]2CCO[C@H](C)C2)no1 [Compound 368] :: Yes
Cc1cnn(C)c1NC(=O)Cc1nc2cnc3ccc(C#N)cc3c2n1[C@@H]1CCO[C@H](C)C1 [Compound 350] :: Yes
C[C@@H]1C[C@H](n2c(CC(=O)NCCc3ccccn3)nc3cnc4ccc(C#N)cc4c32)CCO1 [Compound 366] :: Yes

Answer whether the compound C[C@@H]1C[C@H](n2c([C@@H]3CCN(C(=O)C4CC4)C3)nc3cnc4ccc(C#N)cc4c32)CCO1 [Compound 40] has IC50 strictly less than 30 nM No

Answer whether the compound C[C@@H]1C[C@H](n2c(CC(=O)Nc3ccon3)nc3cnc4ccc(C#N)cc4c32)CCO1 [Compound 184] has IC50 strictly less than 30 nM Yes

Answer whether the compound C[C@@H]1C[C@H](n2c(C3CC(=O)N([C@H]4CCOC4)C3)nc3cnc4ccc(C#N)cc4c32)CCO1 (stereo partly shown) [Compound 45] has IC50 strictly less than 30 nM No

Answer whether the compound C[C@@H]1C[C@H](n2c([C@@H]3CN(CC4CC4)S(=O)(=O)C3)nc3cnc4ccc(C#N)cc4c32)CCO1 [Compound 1] has IC50 strictly less than 30 nM No

---

- system.name: LRRK2 wild type enzyme (Homo sapiens)
- Sequence (Q5S007 whole entry): as above
Hi! Could you tag entries with IC50 below 0.5 nM as Condition met, and those at or above as Condition not met? Much appreciated.

C[C@@H]1C[C@H](n2c(CC(=O)NC3CC=CC3)nc3cnc4ccc(C#N)cc4c32)CCO1 [Compound 302] :: Condition met
C[C@@H]1C[C@H](n2c(CC(=O)Nc3cnccc3C#N)nc3cnc4ccc(C#N)cc4c32)CCO1 [Compound 271] :: Condition not met
Cc1cc(NC(=O)Cc2nc3cnc4ccc(C#N)cc4c3n2[C@@H]2CCO[C@H](C)C2)c(=O)n(C)n1 [Compound 214] :: Condition met
C[C@@H]1C[C@H](n2c(C3CN(S(C)(=O)=O)C3)nc3cnc4ccc(C#N)cc4c32)CCO1 [Compound 67] :: Condition not met
C[C@@H]1C[C@H](n2c([C@@H]3CCN(C(=O)c4cccnn4)C3)nc3cnc4ccc(C#N)cc4c32)CCO1 [Compound 129] :: Condition not met
C[C@@H]1C[C@H](n2c(CC(=O)N3CCCC3)nc3cnc4ccc(C#N)cc4c32)CCO1 [Compound 85] :: Condition not met
Cc1cc(C)c(NC(=O)Cc2nc3cnc4ccc(C#N)cc4c3n2[C@@H]2CCO[C@H](C)C2)cn1 [Compound 236] :: Condition met
C[C@@H]1C[C@H](n2c(CC(=O)NCC3CC3)nc3cnc4ccc(C(=O)N(C)C)cc4c32)CCO1 [Compound 144] :: Condition not met

Answer whether the compound Cc1cncc(NC(=O)Cc2nc3cnc4ccc(C#N)cc4c3n2[C@@H]2CCO[C@H](C)C2)n1 [Compound 314] has IC50 strictly less than 0.5 nM Condition not met

Answer whether the compound CN1CC(n2c(C3CC(=O)N(CC4CC4)C3)nc3cnc4ccc(C#N)cc4c32)CCC1=O (single isomer, unassigned) [Compound 140] has IC50 strictly less than 0.5 nM Condition not met

Answer whether the compound C[C@@H]1C[C@H](n2c([C@H]3CCN(S(=O)(=O)C4CC4)C3)nc3cnc4ccc(C#N)cc4c32)CCO1 [Compound 25] has IC50 strictly less than 0.5 nM Condition not met

---

- system.name: wild type LRRK2 overexpressed in recombinant HEK-293T cells (Homo sapiens)
- assay.summary: pS935 LRRK2 Cell Assay (HTRF, phospho-LRRK2 Ser935)
- assay.conditions: LRRK2 Inhibition, Table 8, 2 hours compound incubation
Overview of reported pIC50 across a group of compounds:
Note on pIC50: it is the negative log10 of concentration, concentration in mol/L.

Study these solved cases before continuing.
C[C@@H]1C[C@H](n2c(CC(=O)N[C@H]3CCOC3)nc3cnc4ccc(Cl)cc4c32)CCO1 :: 8.00
C[C@@H]1C[C@H](n2c(C3CC(=O)N([C@H]4CCCOC4)C3)nc3cnc4ccc(C#N)cc4c32)CCO1 (stereo partly shown) :: 6.40

// field: pIC50; key: "Cc1nn(C)c(C)c1NC(=O)Cc1nc2cnc3ccc(C#N)cc3c2n1[C@@H]1CCO[C@H](C)C1" ; value = 8.02

// field: pIC50; key: "Cc1nc(CNC(=O)Cc2nc3cnc4ccc(C#N)cc4c3n2[C@@H]2CCO[C@H](C)C2)no1" ; value = 6.88

// field: pIC50; key: "CC(=O)N1CC[C@@H](c2nc3cnc4ccc(C#N)cc4c3n2[C@@H]2CCO[C@H](C)C2)C1" ; value = 5.68

// field: pIC50; key: "C[C@@H]1C[C@H](n2c(C3CCN(C(=O)c4cccnn4)CC3)nc3cnc4ccc(C#N)cc4c32)CCO1" ; value = 6.30

// field: pIC50; key: "C[C@@H]1C[C@H](n2c(CC(=O)NC3CC3)nc3cnc4ccc(C(F)(F)F)cc4c32)CCO1" ; value = 7.37

---

- system.name: wild type LRRK2 overexpressed in recombinant HEK-293T cells (Homo sapiens, UniProt Q5S007)
- Construct: host or cells: HEK293T (transient transfection with pCMV-LRRK2 WT plasmid)
- assay.summary: pS935 LRRK2 Cell Assay (HTRF, phospho-LRRK2 Ser935)
- Assay type: cell-based
- assay.conditions: LRRK2 Inhibition, Table 8, 2 hours compound incubation
- Method: A 2× detection solution was prepared: Tb-pERM (pLRRKtide) antibody (final concentration 0.25 nM) and EDTA (final concentration 10 mM) in TR-FRET dilution buffer. 10 μL 2× detection solution was dispensed to each well in assay plate to stop kinase reaction by Multidrop. Assay plate was spun at 1,000 rpm for 1 min and incubate for 30 min at 23° C. Assay plate was then read on Envision configured for LanthaScreen® TR-FRET. pS935 LRRK2 Cell Assay […]
Hi! Could you tag entries with IC50 below 20 nM as met, and those at or above as not met? Much appreciated.

C[C@@H]1C[C@H](n2c(CC(=O)NCc3cccc(F)n3)nc3cnc4ccc(C#N)cc4c32)CCO1 :: met
C[C@@H]1C[C@H](n2c([C@@H]3CCC(=O)N3)nc3cnc4ccc(C#N)cc4c32)CCO1 :: not met
Cc1noc(CNC(=O)Cc2nc3cnc4ccc(C#N)cc4c3n2[C@@H]2CCO[C@H](C)C2)n1 :: not met
CC(C)Oc1ccc(NC(=O)Cc2nc3cnc4ccc(C#N)cc4c3n2[C@@H]2CCO[C@H](C)C2)cn1 :: met
C[C@@H]1C[C@H](n2c(CC(=O)Nc3cnn(C4CC4)c3)nc3cnc4ccc(C#N)cc4c32)CCO1 :: met

Answer whether the compound "C[C@@H]1C[C@H](n2c(CNC(=O)OC3CC3)nc3cnc4ccc(C#N)cc4c32)CCO1" has IC50 strictly less than 20 nM not met

Answer whether the compound "CC(=O)N1CC(c2nc3cnc4ccc(C#N)cc4c3n2[C@@H]2CCO[C@H](C)C2)C1" has IC50 strictly less than 20 nM not met
